tested on: NCI-H2342; assay: relative viability (nuclei count vs DMSO), 5 days (fraction); higher = more cells survive; settings: first compound 0.06325 µM
readoutKind: relative viability
The answer should be a number; do not append a unit.

The molecule CCNC(=O)c1noc(-c2cc(C(C)C)c(O)cc2O)c1-c1ccc(CN2CCOCC2)cc1 [Luminespib] + Cc1nc(Nc2ncc(C(=O)Nc3c(C)cccc3Cl)s2)cc(N2CCN(CCO)CC2)n1 [Dasatinib] (partner 0.075 µM) showed relative viability equal to 0.259

The molecule CCNC(=O)c1noc(-c2cc(C(C)C)c(O)cc2O)c1-c1ccc(CN2CCOCC2)cc1 [Luminespib] + Nc1ncn([C@H]2C[C@H](O)[C@@H](CO)O2)c(=O)n1 [Decitabine] (partner 2 µM) showed relative viability equal to 0.821

The molecule CCNC(=O)c1noc(-c2cc(C(C)C)c(O)cc2O)c1-c1ccc(CN2CCOCC2)cc1 [Luminespib] + CC(=O)Nc1cccc(-n2c(=O)n(C3CC3)c(=O)c3c(Nc4ccc(I)cc4F)n(C)c(=O)c(C)c32)c1 [Trametinib] (partner 0.02 µM) showed relative viability equal to 0.889

The molecule CCNC(=O)c1noc(-c2cc(C(C)C)c(O)cc2O)c1-c1ccc(CN2CCOCC2)cc1 [Luminespib] + N=C(N)NC(=N)NCCc1ccccc1 [Phenformin] (partner 250 µM) showed relative viability equal to 0.606

The molecule CCNC(=O)c1noc(-c2cc(C(C)C)c(O)cc2O)c1-c1ccc(CN2CCOCC2)cc1 [Luminespib] + O=C(c1cc(Cc2n[nH]c(=O)c3ccccc23)ccc1F)N1CCN(C(=O)C2CC2)CC1 [Olaparib] (partner 8 µM) showed relative viability equal to 0.348
